System: VchCAST RNA-guided transposition machinery (E. coli BL21(DE3) host, lacZ target)
Test: relative integration efficiency (T-RL orientation) vs wild-type transposon end (log2 (normalized fold change)); transposon end mutated: right end (5 bp flank + 75 bp right end); higher = more efficient transposition
readout type: relative integration efficiency (log2)

1) ACATTTGTTGATACAACCATAAAATGATAATTACACCCATAAATTCATCATTATCACACCCAATTTAACTATAACGCTCTGATCATAGTCAGACCAACATTGCTACGACCCGTATTCGCACCGACAC	-2.36
2) ACATTTGTTGATACAACCATATAATGATAATAACACCCCTAAAATGATAATTATCACACCCAATTTAACTATAACGCTCTGATCATAGTCAGACCAACATTGCTACGACCCGTATTCGCACCGACAC	-2.99
3) ACATTTGTTGATACAACCATAAAATGATAATTACAACCATAAGTTGATATTTTTCACAACCATAAAGTGATATTTACTCTGATCATAGTCAGACCAACATTGCTACGACCCGTATTCGCACCGACAC	0.274
4) ACATTTGTTGATACACCCATAAATTGATATTGCCACCCATAAATTGATATTGCTCACAACCATAAAGTGATATTTACTCTGATCATAGTCAGACCAACATTGCTACGACCCGTATTCGCACCGACAC	-0.811
5) ACATTTGTTGATACAACCATAAAAGGATCATTACACCCATCAATTGATAATTATCCCACCCAATTTAACTATAACGCTCTGATCATAGTCAGACCAACATTGCTACGACCCGTATTCGCACCGACAC	-2.99
6) ACATTTGTTGATACAACCAATAAAAGATAATTACACCCATAAATTGATAATTGTGACACCGAATTTAACTATAACGCTCTGATCATAGTCAGACCAACATTGCTACGACCCGTATTCGCACCGACAC	-2
7) ACATTTGTTGATACAACCATAAAATGATAATTACACCCATAACGGTATAATTATCACACCCATAAATTGATATTGCCTCTGATCATAGTCAGACCAACATTGCTACGACCCGTATTCGCACCGACAC	-1.01
8) ACATTTGTTGATACAACCATAAAATGATAATTACACCCATAAATACTAAATTATCACACCCATAAATTGATATTGCCTCTGATCATAGTCAGACCAACATTGCTACGACCCGTATTCGCACCGACAC	-1.56
9) ACATTTGTTGATACAACCATAAAATGATAATTAATAATTATTTCACCCATAAATTGATAATTATCACACCCATAAATTGATATTGCCTCTGATCATAGTCAGACCAACATTGCTACGACCCGTATTC	-3.8
10) ACATTTGTTGATACTACCATATAATGATAATAACACCCATAAAATGATAATTATCACACCCAATTTAACTATAACGCTCTGATCATAGTCAGACCAACATTGCTACGACCCGTATTCGCACCGACAC	-1.45

* * *

Tested on: VchCAST RNA-guided transposition machinery (E. coli BL21(DE3) host, lacZ target)
Assay: relative integration efficiency (T-RL orientation) vs wild-type transposon end (log2 (normalized fold change)); transposon end mutated: left end; higher = more efficient transposition
readout type: relative integration efficiency (log2)

1) AATGTTGTTGATGCAACCATAAAGTGATATTTATTTATGGCTAGCTCAGTCCTAGGTACAATGCTAGCAACCATATATTGATATCTCACAAAACAACCATAAGTTGATATTTTTGTGAATCGAGTATTTCAGCAAAACTACTGCAGTAAGAA	-4.66
2) AATGTTGTTGATGCAACCATAAAGTGATATTTACTTAAGCGAGTCTGTCCTTTCTGACTGTCGATCCCAACCATATATTGATATCTCACAAAACAACCATAAGTTGATATTTTTGTGAATCGAGTATTTCAGCAAAACTACTGCAGTAAGAA	-3.4

* * *

Parameter: relative integration efficiency (log2). Scope: all listed entries.
Test system: VchCAST RNA-guided transposition machinery (E. coli BL21(DE3) host, lacZ target)
Experiment: relative integration efficiency (T-RL orientation) vs wild-type transposon end (log2 (normalized fold change)); transposon end mutated: right end (5 bp flank + 75 bp right end); higher = more efficient transposition
readout type: relative integration efficiency (log2)

1) ACATTTGTTGATACAACCATAAAATGATAATTACTCTGATCATAGTCAGACCACACCCATAAATTGATAATTATCAGTGGGTATTTAACTATAACGACATTGCTACGACCCGTATTCGCACCGACAC	-0.22
2) ACATTTGTTGATACAACCATAAAAGGATCATTACACCCATAAATTGATAATTATCCCACCCAATTTAACTATAACGCTCTGATCATAGTCAGACCAACATTGCTACGACCCGTATTCGCACCGACAC	-1.69
3) ACATTTGTTGATACACCCATAAATTGATAATTACACCCATAAATTGATAATTATCACAACCATAAGTTGATATTTTCTCTGATCATAGTCAGACCAACATTGCTACGACCCGTATTCGCACCGACAC	-0.361
4) ACATTAGTTCATACAACCATAAAATGATAATTACACCCATAAATTCATCATTATCACACCCAATTTAACTATAACGCTCTGATCATAGTCAGACCAACATTGCTACGACCCGTATTCGCACCGACAC	-7.69
5) ACATTTGTTGATACAACCATAAAATGATAATTACACCCATTTATTGATAATTATCACACCCATAAATTGATATTGCCTCTGATCATAGTCAGACCAACATTGCTACGACCCGTATTCGCACCGACAC	-0.33
6) ACATTTGTTGATACACCCATAAATTGATAATTACAACCATAAGTTGATATTTTTCACACCCATAAATTGATATTGCCTCTGATCATAGTCAGACCAACATTGCTACGACCCGTATTCGCACCGACAC	-0.708
7) ACATTTGTTGATTGAACCATAAAATGATAATTACACCCATAAATTGATAATTATCACACCCATAAATTGATATTGCCTCTGATCATAGTCAGACCAACATTGCTACGACCCGTATTCGCACCGACAC	-0.172
8) ACATTTGTTGATACAACCATAAAATCATAATTACCCCCATAAATTGATAATTATCACACCCAATTTAACTATAACGCTCTGATCATAGTCAGACCAACATTGCTACGACCCGTATTCGCACCGACAC	-3.09
9) ACATTTGTTGATACAACCATAAAATGATAATTACACCCATAAATTGATAATTATCACACCCATAAATTGATATTGCCTCTGATCATAGTCGAACTAGTTAACTAGTACGCTCAGACCGCACCGACAC	-0.00349
10) ACATTTGTTGATACAACCATAAAATGATAATTACCCCCATAAATTGATAATAATGACACCGAATTTAACTATAACGCTCTGATCATAGTCAGACCAACATTGCTACGACCCGTATTCGCACCGACAC	-1.7

* * *

System: VchCAST RNA-guided transposition machinery (E. coli BL21(DE3) host, lacZ target)
Assay: relative integration efficiency (T-LR orientation) vs wild-type transposon end (log2 (normalized fold change)); transposon end mutated: left end; higher = more efficient transposition
readout type: relative integration efficiency (log2)

1) AATGTTGTTGATGCAACCATAAAGTGATATTTAATAATTATTTATAATCAGCAACTTAACCACAAAACAACCATATATTGATATCTCACAAAACAACCAGCCTGGTCGCGGGGGTGTCCGATCTGATTTCAGCAAAACTACTGCAGTAAGAA	-0.68
2) TTTTGTGTTGAAACAACCATAAAGTGATATTTACGAATCAATTAAAATCATAGGCTTAATCGAAAAACAACCATATCTTGATATCGCATAAAACAACCATAAGTTGATATTTTGGTGAAAAGGATATTCCAACCTTCATAGTTTAGTAAGAA	-0.00585
3) AATGTTGTTGATGCAACCATAAAGTGAGCGGGCATAATTATTTATAATCAGCAACTTAACCACAAAACAACCATATATTGAGCGAGAACAAAACAACCATAAGTTGAGCGGGGTGTGAATCGAGTATTTCAGCAAAACTACTGCAGTAAGAA	-4.11
4) AATGTTGTTGATGCAACCATAAAGTGATATTTAATAACAACCATATATTGATATCTCTTATTTATAATCAGCAACTTAACCACAAAAACAAAACAACCATAAGTTGATATTTTTGTGAATCGAGTATTTCAGCAAAACTACTGCAGTAAGAA	-2.07

* * *

Test system: VchCAST RNA-guided transposition machinery (E. coli BL21(DE3) host, lacZ target)
Test: relative integration efficiency (T-RL orientation) vs wild-type transposon end (log2 (normalized fold change)); transposon end mutated: right end (5 bp flank + 75 bp right end); higher = more efficient transposition
readout type: relative integration efficiency (log2)

1) ACATTTGTTGATACAACCATAAAATGATAATTACACCCATAATATGATAATTATCACACCCATAAATTGATATTGCCTCTGATCATAGTCAGACCAACATTGCTACGACCCGTATTCGCACCGACAC	-0.297
2) ACATTTGTTGATACAACCATAAAGTGATATTTACAACCATATATTGATATCTCTCACAACCATAAAATGATAATTACTCTGATCATAGTCAGACCAACATTGCTACGACCCGTATTCGCACCGACAC	-0.337
3) ACATTTGTCGATACAACCCTAAAATGATAATTACACCCATAAATTGATCATTATCACACCCAATTTAACTATAACGCTCTGATCATAGTCAGACCAACATTGCTACGACCCGTATTCGCACCGACAC	-3
4) ACATTTGTTGATACAACCATAAAATGGTAATTCCACCCATACATTGATAATTATCACACCCAATTTAACTATAACGCTCTGATCATAGTCAGACCAACATTGCTACGACCCGTATTCGCACCGACAC	-3.15
5) ACATTTGTGGATACAACCCTAAAATGATAATTACACCCATAAATTCATAATTATCACCCCCAATTTAACTATAACGCTCTGATCATAGTCAGACCAACATTGCTACGACCCGTATTCGCACCGACAC	-4.88
